Sourced from patent US20230113037A1

# Target entity: AHR (Homo sapiens, UniProt P35869)
# Construct: U87 MG glioblastoma cells (ATCC #HTB-14) endogenously expressing AHR; endogenous in cells; host or cells: U87 MG glioblastoma cells (ATCC #HTB-14)
# Sequence (P35869 11-848): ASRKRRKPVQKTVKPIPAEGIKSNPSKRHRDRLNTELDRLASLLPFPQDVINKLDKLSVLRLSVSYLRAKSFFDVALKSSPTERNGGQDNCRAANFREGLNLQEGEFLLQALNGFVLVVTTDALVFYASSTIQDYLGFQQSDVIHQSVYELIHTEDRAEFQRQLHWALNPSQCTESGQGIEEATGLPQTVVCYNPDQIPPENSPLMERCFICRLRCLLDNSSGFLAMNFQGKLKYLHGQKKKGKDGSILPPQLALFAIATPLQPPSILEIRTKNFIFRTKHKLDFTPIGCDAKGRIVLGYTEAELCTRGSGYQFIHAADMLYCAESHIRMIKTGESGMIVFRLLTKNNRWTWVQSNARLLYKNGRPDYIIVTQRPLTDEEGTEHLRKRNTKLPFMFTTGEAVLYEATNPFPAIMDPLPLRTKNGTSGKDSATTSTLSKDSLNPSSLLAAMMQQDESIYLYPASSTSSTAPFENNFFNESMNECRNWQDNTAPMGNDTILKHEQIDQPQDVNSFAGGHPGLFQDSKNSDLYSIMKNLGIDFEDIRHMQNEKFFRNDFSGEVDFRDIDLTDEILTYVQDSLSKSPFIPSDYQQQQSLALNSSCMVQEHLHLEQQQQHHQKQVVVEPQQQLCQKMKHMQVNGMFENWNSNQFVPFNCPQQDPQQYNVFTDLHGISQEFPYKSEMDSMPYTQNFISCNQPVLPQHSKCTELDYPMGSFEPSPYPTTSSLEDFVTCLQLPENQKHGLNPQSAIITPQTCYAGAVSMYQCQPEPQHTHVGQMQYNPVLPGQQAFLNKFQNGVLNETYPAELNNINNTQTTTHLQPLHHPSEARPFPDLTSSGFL
# Assay comment: In vitro assay 1: antagonism in human cell line (AHR transactivation, firefly luciferase reporter, kynurenic acid prestimulated)
# Type: cell-based
# Condition parameters: AHR Antagonism Human IC50 [M]
Recorded metric: log10 IC50 (log10 of the value in M)
Log scale reminder: IC50 in M, then log10 taken.

Below, 5 molecules whose answers are already recorded.
CS(=N)(=O)c1ccccc1-c1nc2c3ccccc3nc(N[C@@H]3CCCCNC3=O)n2n1 (single isomer, unassigned) [Example 661]	-6.82
CSc1ccc(-c2nc3c4ccccc4nc(N[C@@H]4CCCCNC4=O)n3n2)cc1 [Example 202]	-9.29
Nc1ccc(-c2nc3c4ccccc4nc(N[C@@H]4CCCCNC4=O)n3n2)cc1 [Example 620]	-7.07
COc1cccc(-c2nc3c4ccccc4nc(NC4CNCCNC4=O)n3n2)c1 (stereo not shown) [Example 115]	-5.95
CC[C@@H](Nc1nc2ccccc2c2nc(-c3cc(C(F)(F)F)ccn3)nn12)C(N)=O [Example 367]	-6.72

Requested read-out log10 IC50, target or system AHR (Homo sapiens, UniProt P35869), entry CCn1nc(C)c(-c2nc3c4cccc(C(F)(F)F)c4nc(N[C@@H]4CCCCNC4=O)n3n2)c1C [Example 738]
-8.47

----------
# Target entity: AHR (Mus musculus, UniProt P30561)
# Sequence (P30561 whole entry P471L/N533S/M589L, form open): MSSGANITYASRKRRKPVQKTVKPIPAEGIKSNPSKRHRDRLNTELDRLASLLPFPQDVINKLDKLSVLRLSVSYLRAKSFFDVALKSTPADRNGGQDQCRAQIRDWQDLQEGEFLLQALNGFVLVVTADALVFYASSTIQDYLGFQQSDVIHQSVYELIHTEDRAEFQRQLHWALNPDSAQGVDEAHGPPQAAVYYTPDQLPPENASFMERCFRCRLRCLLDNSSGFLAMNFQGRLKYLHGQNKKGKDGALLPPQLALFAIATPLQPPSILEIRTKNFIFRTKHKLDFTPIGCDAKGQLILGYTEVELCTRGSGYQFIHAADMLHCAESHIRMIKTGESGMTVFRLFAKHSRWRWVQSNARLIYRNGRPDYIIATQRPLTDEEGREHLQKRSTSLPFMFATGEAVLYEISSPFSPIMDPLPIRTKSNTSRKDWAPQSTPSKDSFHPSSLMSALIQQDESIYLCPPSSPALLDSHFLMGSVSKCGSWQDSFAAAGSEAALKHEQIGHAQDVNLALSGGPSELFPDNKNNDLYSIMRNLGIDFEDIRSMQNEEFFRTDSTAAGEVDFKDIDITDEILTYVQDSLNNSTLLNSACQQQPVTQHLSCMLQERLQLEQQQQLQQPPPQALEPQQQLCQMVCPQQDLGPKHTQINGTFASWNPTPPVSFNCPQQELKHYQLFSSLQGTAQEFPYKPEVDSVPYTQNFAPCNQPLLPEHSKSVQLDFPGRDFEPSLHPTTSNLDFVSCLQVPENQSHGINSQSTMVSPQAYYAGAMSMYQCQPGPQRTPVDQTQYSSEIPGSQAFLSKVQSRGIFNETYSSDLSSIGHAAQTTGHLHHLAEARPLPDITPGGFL
# Assay comment: In vitro assay 3: antagonism in mouse cell line (AHR transactivation, firefly luciferase reporter, kynurenic acid prestimulated)
# Type: cell-based
# Condition parameters: mouse Hepa 1c1c7 cells, 200 μM kynurenic acid, 20 hours, read-out: AHR Antagonism Mouse IC50
Assign classes using reported IC50 values and the ranges 1 = under 10 nM, 2 = from 10 nM up to 80 nM, 3 = 80 nM and over, please.

CC[C@@H](Nc1nc2ccccc2c2nc(-c3cccc(OC(F)(F)F)c3)nn12)C(N)=O	1
O=C1NCCCC[C@H]1Nc1nc2ccccc2c2nc(-c3ccc(O)cc3F)nn12	3
O=C1NCCC1Nc1nc2ccccc2c2nc(-c3cccc(F)c3)nn12 (centres unmarked)	2
COc1ccc(-c2nc3c4cccc(Br)c4nc(N[C@H]4CCCCNC4=O)n3n2)cc1	2
Cn1ccc(-c2nc3c4ccccc4nc(N[C@@H]4CNCCNC4=O)n3n2)n1	3
CS(=O)(=O)c1ccc(-c2nc3c4ccccc4nc(N[C@H]4CCCCNC4=O)n3n2)cc1	2
COc1cscc1-c1nc2c3ccccc3nc(N[C@@H]3CCN(C)C3=O)n2n1	3
O=C1NCCNCC1Nc1nc2cccc(Cl)c2c2nc(-c3ccc(F)cc3)nn12 (single isomer, unassigned) [Example 298]	2

Could you place O=C1NCCCC[C@H]1Nc1nc2ccccc2c2nc(-c3cnsc3)nn12 in its proper category? Many thanks.
1
